I'd be grateful if you could share measured inhibition for these entries.
Target: Sentrin-specific protease 8 (Homo sapiens)
Experiment: blockers of human SENP8 peptidase activity – biochemical, luminescence, primary screen (AID 2540)
Settings: purified SENP8, Z-RLRGG-aminoluciferin cleavage, at 10 µM, active compounds read high
About 4,100 (1.2%) of roughly 330,000 compounds were called active. This excerpt belongs to a sample that is enriched for actives.

Quick check: inhibition of CC(C)(C)NC(=O)CN(Cc1cccs1)C(=O)CNS(=O)(=O)c1ccccc1 ?
2.68% (inactive)

Give the measured inhibition of COc1ccc(OC)c(S(=O)(=O)NCCC(C)C)c1 .
0.429% (inactive)

Endpoint output: inhibition of Cc1cc(=O)n2[nH]c(-c3cccc(Cl)c3)cc2n1 . Value?
-14% (inactive)

Given COc1ccccc1CCNS(=O)(=O)c1cc2c3c(c1)C(C)C(=O)N3CCC2 (stereo unspecified) , state its recorded inhibition.
-8.53% (inactive)

What inhibition value was documented for this compound, Clc1ccc(COn2c(-c3ccc(Cl)cc3Cl)nc3ncccc32)cc1 ?
1.77% (inactive)

For the compound shown here, CC(Sc1nnc(-c2cccs2)n1C1CC1)C(=O)NCC1CCCO1 (stereo unspecified) , give the reported inhibition.
-0.203% (inactive)

Given the compound O=C(CN(c1ccccc1)S(=O)(=O)c1ccc(Cl)cc1)Nc1ccccc1C(=O)N1CCCC1 , what is its reported inhibition?
2.45% (inactive)

Find the recorded inhibition belonging to O=C(CN1CCN(c2ccccc2F)CC1)c1ccc2c(c1)OCO2 and report it.
-9.99% (inactive)

Sample O=C(c1ccco1)N1CCN(C(=O)c2cc(-c3ccccc3F)no2)CC1 — what was its inhibition?
3.2% (inactive)

Return reported inhibition; argument: CC(CCc1ccc(O)cc1)NCc1ccc(Cl)cc1Cl (stereo unspecified)
-5.92% (inactive)

I'd like to know its inhibition. The compound in question is CCOC(=O)C1CCN(S(=O)(=O)c2ccc3c(c2)N(C)C(=O)CC(=O)N3C)CC1
2.4% (inactive)
